Provenance of the data: ChEMBL document CHEMBL3352610

- SYSTEM_UNDER_TEST: Kir3.1/Kir3.2 (Homo sapiens) (UniProt P48549+P48051)
- TEST: Activation of GIRK1/2 (unknown origin) by thallium-flux based assay relative to ML297
- Assay type: protein-complex assay
READOUT_KIND: Efficacy (%)

As a guide, the following entries are already answered.
# COMPOUND, Efficacy (%)
rows = [
    ("Cc1cc(NC(=O)Nc2cc(C3CC3C)nn2CC(F)(F)F)ccc1F (stereo unspecified)", 81),
    ("CC1CC1c1cc(NC(=O)Nc2ccc(F)c(F)c2)n(CC(F)(F)F)n1 (stereo unspecified)", 100),
    ("CC1CC1c1cc(NC(=O)Nc2ccc(C(F)(F)F)cc2)n(CC(F)(F)F)n1 (stereo unspecified)", 70),
    ("CC1CC1c1cc(NC(=O)Nc2ccc(Cl)cc2)n(CC(F)(F)F)n1 (stereo unspecified)", 66),
]

[1] Cc1ccc(NC(=O)Nc2cc(C3CC3C)nn2CC(F)(F)F)cc1 (stereo unspecified)
[2] CC1CC1c1cc(NC(=O)Nc2cccc(F)c2)n(CC(F)(F)F)n1 (stereo unspecified)
Determine, for 1 and 2 , which has the greater value of Efficacy. Could you answer with the label of the item you picked?
2

###

- SYSTEM_UNDER_TEST: Kir3.1/Kir3.4 (Homo sapiens) (UniProt P48549+P48544)
- TEST: Activation of GIRK1/4 (unknown origin) by thallium-flux based assay relative to ML297
- Format: protein-complex assay
READOUT_KIND: Efficacy (%)

As a guide, the following entries are already answered.
# MOLECULE, SYSTEM_UNDER_TEST, QUANTITY_UNIT, Efficacy
data = [
    ("CC1CC1c1cc(NC(=O)Nc2ccc(F)c(F)c2)n(CC(F)(F)F)n1 (stereo unspecified)", "Kir3.1/Kir3.4 (Homo sapiens) (UniProt P48549+P48544)", "%", 112),
    ("Cc1ccc(NC(=O)Nc2cc(C3CC3C)nn2CC(F)(F)F)cc1 (stereo unspecified)", "Kir3.1/Kir3.4 (Homo sapiens) (UniProt P48549+P48544)", "%", 100),
    ("CC1CC1c1cc(NC(=O)Nc2ccc(C(F)(F)F)cc2)n(CC(F)(F)F)n1 (stereo unspecified)", "Kir3.1/Kir3.4 (Homo sapiens) (UniProt P48549+P48544)", "%", 100),
    ("CC1CC1c1cc(NC(=O)Nc2cccc(F)c2)n(CC(F)(F)F)n1 (stereo unspecified)", "Kir3.1/Kir3.4 (Homo sapiens) (UniProt P48549+P48544)", "%", 100),
]

[1] CC1CC1c1cc(NC(=O)Nc2ccc(Cl)cc2)n(CC(F)(F)F)n1 (stereo unspecified)
[2] Cc1cc(NC(=O)Nc2cc(C3CC3C)nn2CC(F)(F)F)ccc1F (stereo unspecified)
Determine, for 1 and 2 , which has the greater value of Efficacy. Could you answer with the label of the item you picked?
1

###

- SYSTEM_UNDER_TEST: Kir3.1/Kir3.4 (Homo sapiens, UniProt P48544+P48549)
- Sequence (P48549 whole entry): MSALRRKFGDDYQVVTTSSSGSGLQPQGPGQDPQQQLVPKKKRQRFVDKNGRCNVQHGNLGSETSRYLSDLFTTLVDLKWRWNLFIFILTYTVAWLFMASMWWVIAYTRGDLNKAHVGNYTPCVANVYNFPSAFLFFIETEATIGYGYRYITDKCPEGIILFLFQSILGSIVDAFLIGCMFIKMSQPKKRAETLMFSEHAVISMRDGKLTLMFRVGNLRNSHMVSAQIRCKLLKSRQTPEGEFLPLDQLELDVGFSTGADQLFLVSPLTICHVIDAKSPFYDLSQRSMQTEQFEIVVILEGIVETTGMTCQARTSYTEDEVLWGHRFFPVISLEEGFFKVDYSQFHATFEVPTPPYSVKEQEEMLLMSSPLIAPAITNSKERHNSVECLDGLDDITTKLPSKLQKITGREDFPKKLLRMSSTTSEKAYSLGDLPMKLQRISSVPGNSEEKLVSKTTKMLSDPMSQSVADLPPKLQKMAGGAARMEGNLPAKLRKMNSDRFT
- Sequence (P48544 whole entry): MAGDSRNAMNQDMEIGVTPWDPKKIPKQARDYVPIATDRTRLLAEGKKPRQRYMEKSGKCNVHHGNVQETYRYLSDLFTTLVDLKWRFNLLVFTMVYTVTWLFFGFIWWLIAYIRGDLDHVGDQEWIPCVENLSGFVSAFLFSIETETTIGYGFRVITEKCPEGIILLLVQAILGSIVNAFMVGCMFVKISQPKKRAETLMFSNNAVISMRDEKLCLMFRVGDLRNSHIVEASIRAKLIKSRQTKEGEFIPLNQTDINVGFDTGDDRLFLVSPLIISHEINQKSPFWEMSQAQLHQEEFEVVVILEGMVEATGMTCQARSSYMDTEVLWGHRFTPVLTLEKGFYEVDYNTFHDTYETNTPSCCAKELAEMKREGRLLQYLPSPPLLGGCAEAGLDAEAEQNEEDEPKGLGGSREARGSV
- TEST: Activation of GIRK1/4 (unknown origin) by thallium-flux based assay
READOUT_KIND: EC50 (µM)

As a guide, the following entries are already answered.
# MOLECULE, EC50 (µM)
data = [
    ("CC1CC1c1cc(NC(=O)Nc2cccc(F)c2)n(CC(F)(F)F)n1 (stereo unspecified)", 1),
    ("Cc1ccc(NC(=O)Nc2cc(C3CC3C)nn2CC(F)(F)F)cc1 (stereo unspecified)", 2.3),
    ("CC1CC1c1cc(NC(=O)Nc2ccc(F)c(F)c2)n(CC(F)(F)F)n1 (stereo unspecified)", 4.9),
    ("CC1CC1c1cc(NC(=O)Nc2ccc(Cl)cc2)n(CC(F)(F)F)n1 (stereo unspecified)", 1.8),
]

[A] CC1CC1c1cc(NC(=O)Nc2ccc(C(F)(F)F)cc2)n(CC(F)(F)F)n1 (stereo unspecified)
[B] Cc1cc(NC(=O)Nc2cc(C3CC3C)nn2CC(F)(F)F)ccc1F (stereo unspecified)
Determine, for A and B , which has the greater value of EC50. Could you answer with the label of the item you picked?
A
